Item-by-item account of self-splicing fitness (ln)
Assay: self-splicing fitness, log relative to wild type (ln ratio); higher = more splicing; Tetrahymena group I intron in knt gene, E. coli kanamycin selection, DiMSum; sequences stand for … in CUCUCU…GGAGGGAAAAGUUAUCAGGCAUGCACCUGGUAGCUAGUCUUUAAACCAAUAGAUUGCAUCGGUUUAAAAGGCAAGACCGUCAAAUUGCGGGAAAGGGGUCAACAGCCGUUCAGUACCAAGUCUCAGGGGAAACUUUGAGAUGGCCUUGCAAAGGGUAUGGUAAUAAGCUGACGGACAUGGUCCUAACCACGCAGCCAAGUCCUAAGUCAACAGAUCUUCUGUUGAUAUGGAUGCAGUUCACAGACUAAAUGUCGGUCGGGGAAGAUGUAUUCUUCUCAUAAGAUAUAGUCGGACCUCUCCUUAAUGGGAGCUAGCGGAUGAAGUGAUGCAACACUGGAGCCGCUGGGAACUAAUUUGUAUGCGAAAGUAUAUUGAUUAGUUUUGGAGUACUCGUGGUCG;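 further: selection with 25 µg/mL kanamycin versus none on LB agar overnight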
Conditions: 37 °C
reportedEndpoint: self-splicing fitness (ln)

INSERT INTO results (sequencechain, reportedendpoint, testresult) VALUES
  ('CACAAGCAAUAUUACGAACA', 'self-splicing fitness (ln)', -1.72),
  ('UGCGAGCAAUAUUACGGUCG', 'self-splicing fitness (ln)', -2.39),
  ('CCUUAGCAAUAUUACGGUUC', 'self-splicing fitness (ln)', -2.72),
  ('AUAGAGCAAUAUUACGUAAG', 'self-splicing fitness (ln)', -1.34),
  ('UCUAAGCAAUAUUACGGCGG', 'self-splicing fitness (ln)', -0.431),
  ('AGCCAGCAAUAUUACGCCAA', 'self-splicing fitness (ln)', -1.75),
  ('CCGCAGCAAUAUUACGGGAA', 'self-splicing fitness (ln)', -2.71),
  ('ACUUAGCAAUAUUACGCAUG', 'self-splicing fitness (ln)', -0.581),
  ('ACGUAGCAAUAUUACGACAU', 'self-splicing fitness (ln)', 0.0543),
  ('GGCUAGCAAUAUUACGGAUU', 'self-splicing fitness (ln)', 0.405),
  ('CGCAAGCAAUAUUACGUGUA', 'self-splicing fitness (ln)', -0.494),
  ('UGCGAGCAAUAUUACGCGUG', 'self-splicing fitness (ln)', -1.12),
  ('GAACAGCAAUAUUACGCAAC', 'self-splicing fitness (ln)', -0.355),
  ('GGACAGCAAUAUUACGCUCC', 'self-splicing fitness (ln)', -1.24),
  ('AAACAGCAAUAUUACGUACU', 'self-splicing fitness (ln)', -0.159),
  ('UUCCAGCAAUAUUACGUUGA', 'self-splicing fitness (ln)', -1.17);

* * *

Assay: self-splicing fitness, log relative to wild type (ln ratio); higher = more splicing; Tetrahymena group I intron in knt gene, E. coli kanamycin selection, DiMSum; sequences stand for … in CUCUCU…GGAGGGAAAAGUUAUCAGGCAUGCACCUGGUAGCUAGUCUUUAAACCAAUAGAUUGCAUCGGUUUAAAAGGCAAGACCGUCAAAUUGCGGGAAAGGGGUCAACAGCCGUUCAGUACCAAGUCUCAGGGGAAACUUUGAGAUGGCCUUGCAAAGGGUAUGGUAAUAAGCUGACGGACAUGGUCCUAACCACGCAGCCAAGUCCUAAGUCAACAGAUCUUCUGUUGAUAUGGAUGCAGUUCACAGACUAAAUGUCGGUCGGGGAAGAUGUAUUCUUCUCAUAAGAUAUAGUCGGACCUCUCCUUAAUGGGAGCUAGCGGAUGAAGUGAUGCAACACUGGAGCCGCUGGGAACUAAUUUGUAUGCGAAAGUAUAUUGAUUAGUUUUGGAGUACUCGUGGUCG
Settings: 37 °C
Label Criterion met when self-splicing fitness (ln) is at or above -2; anything below gets Criterion not met.

INSERT INTO results (sequencechain, group) VALUES
  ('UUAGAGCAAUAUUACGUCAA', 'Criterion met'),
  ('AUACAGCAAUAUUACGCCGU', 'Criterion met'),
  ('AGCGAGCAAUAUUACGCCAU', 'Criterion met'),
  ('UUUUAGCAAUAUUACGCGAA', 'Criterion met'),
  ('CAAUAGCAAUAUUACGCCUG', 'Criterion met'),
  ('ACCAAGCAAUAUUACGGGGU', 'Criterion not met'),
  ('GUCGAGCAAUAUUACGGGCA', 'Criterion met'),
  ('GAAUAGCAAUAUUACGCGUA', 'Criterion met'),
  ('AGUAAGCAAUAUUACGUGGG', 'Criterion met'),
  ('GUGUAGCAAUAUUACGCCGU', 'Criterion met'),
  ('ACACAGCAAUAUUACGGCGC', 'Criterion met'),
  ('GGCUAGCAAUAUUACGGCUA', 'Criterion met'),
  ('UGUCAGCAAUAUUACGGAUA', 'Criterion met'),
  ('CCACAGCAAUAUUACGGUAG', 'Criterion met'),
  ('ACGCAGCAAUAUUACGGCUC', 'Criterion met'),
  ('GUGUAGCAAUAUUACGGCGA', 'Criterion met'),
  ('GACCAGCAAUAUUACGUAUU', 'Criterion met'),
  ('CCCUAGCAAUAUUACGCCUG', 'Criterion not met'),
  ('UUCCAGCAAUAUUACGUGUA', 'Criterion met'),
  ('GGGCAGCAAUAUUACGGUCA', 'Criterion met'),
  ('CCACAGCAAUAUUACGCAAU', 'Criterion not met'),
  ('UCAGAGCAAUAUUACGACCA', 'Criterion not met'),
  ('AAUGAGCAAUAUUACGAUCU', 'Criterion met'),
  ('GGUCAGCAAUAUUACGGUCU', 'Criterion met'),
  ('UUUCAGCAAUAUUACGAUUU', 'Criterion met'),
  ('UCGGAGCAAUAUUACGCGAU', 'Criterion not met'),
  ('UGUAAGCAAUAUUACGUACC', 'Criterion met'),
  ('ACUCAGCAAUAUUACGUUGG', 'Criterion met'),
  ('GUAUAGCAAUAUUACGCACC', 'Criterion met'),
  ('UACUAGCAAUAUUACGCAUU', 'Criterion met'),
  ('ACAAAGCAAUAUUACGCAAU', 'Criterion met'),
  ('UUGAAGCAAUAUUACGAUAU', 'Criterion met'),
  ('GGUUAGCAAUAUUACGACGU', 'Criterion met'),
  ('AGGCAGCAAUAUUACGGGGA', 'Criterion not met'),
  ('AGUGAGCAAUAUUACGUGAG', 'Criterion met'),
  ('GUAAAGCAAUAUUACGUCGU', 'Criterion met'),
  ('GCUUAGCAAUAUUACGUGUA', 'Criterion met'),
  ('ACAAAGCAAUAUUACGCCGA', 'Criterion met'),
  ('CCCCAGCAAUAUUACGGCUU', 'Criterion not met'),
  ('GCUAAGCAAUAUUACGGCGG', 'Criterion not met'),
  ('ACCUAGCAAUAUUACGUAGC', 'Criterion met'),
  ('GCUGAGCAAUAUUACGGGGG', 'Criterion met'),
  ('AGUGAGCAAUAUUACGUCCG', 'Criterion met'),
  ('CCGGAGCAAUAUUACGGCGC', 'Criterion met'),
  ('UCUAAGCAAUAUUACGGUGG', 'Criterion met'),
  ('AUCUAGCAAUAUUACGCAUG', 'Criterion met'),
  ('AACUAGCAAUAUUACGAGCC', 'Criterion met'),
  ('CUGUAGCAAUAUUACGGUAC', 'Criterion not met'),
  ('CCUGAGCAAUAUUACGCAAG', 'Criterion not met'),
  ('CGAAAGCAAUAUUACGAUAC', 'Criterion not met'),
  ('UCUAAGCAAUAUUACGGUUU', 'Criterion not met'),
  ('CCGAAGCAAUAUUACGUCAU', 'Criterion not met'),
  ('AGGUAGCAAUAUUACGGCGG', 'Criterion met'),
  ('GCUAAGCAAUAUUACGCGAU', 'Criterion met'),
  ('AAACAGCAAUAUUACGAACU', 'Criterion met'),
  ('UAGAAGCAAUAUUACGGGCU', 'Criterion not met'),
  ('AAAUAGCAAUAUUACGCAUC', 'Criterion met'),
  ('CUGGAGCAAUAUUACGAGAU', 'Criterion not met'),
  ('CGGAAGCAAUAUUACGAUGC', 'Criterion not met'),
  ('UUCUAGCAAUAUUACGUAUU', 'Criterion not met'),
  ('GAUUAGCAAUAUUACGGAAU', 'Criterion not met'),
  ('UGGGAGCAAUAUUACGCCGA', 'Criterion met'),
  ('UAUGAGCAAUAUUACGUAAG', 'Criterion not met'),
  ('GGCCAGCAAUAUUACGAAUC', 'Criterion met');
